This listing pairs compounds with measured growth.
Tested on: HT29 colon
Test Description: NCI-60 one-dose screen, 48 h (100 = growth as untreated, 0 = no growth, -100 = all killed)
Condition Details: 10 µM
The panel holds about 83,000 compounds, 20% with a hit somewhere; the sample as a whole holds those more often.
// units = %; emit number, no label

{"Compound String": "O=C(CCCNC(=O)c1nc(-c2ccccc2)n(-c2ccccc2)n1)NO", "Val": 90.1}
{"Compound String": "COc1cccc2ccc(CC(O)(c3ccccc3)c3ccccc3)nc12", "Val": 91.8}

Prompt: I am curious: what growth value has been reported for O=C(CCCSc1nc(-c2ccccc2)cc(-c2ccc(Cl)cc2)n1)NO ?
Response: 20.3

###

Measured growth by item
Test system: NCI/ADR-RES ovarian
Test Description: NCI-60 one-dose screen, 48 h (100 = growth as untreated, 0 = no growth, -100 = all killed)
Condition Details: 10 µM
This is part of a sample that, as a whole, favours compounds with a hit. Of some 83,000 tested, about 20% had one in any assay. Activity calls are given as the source filed them. The calls were made as follows: active = growth percent below 10; inactive = the rest.

Record excerpt, results attached:
{"Compound": "CC(=O)N[C@H](C(=O)N[C@@H](CCCNC(=N)N)C(=O)N[C@@H](CCCCN)C(=O)N[C@@H](CCCNC(=N)N)C(=O)N[C@]1(C)CCCCCC/C=C\\CCC[C@@](C)(C(=O)N[C@@H](CCCNC(=N)N)C(=O)N[C@@H](CCC(=O)O)C(=O)N[C@@H](CC(C)C)C(=O)N[C@H](C(=O)N[C@@H](CCC(=O)O)C(N)=O)C(C)C)NC(=O)[C@H](CCC(N)=O)NC(=O)[C@H](CC(C)C)NC(=O)[C@H](CC(C)C)NC(=O)[C@H](CCCNC(=N)N)NC(=O)[C@H](CCCNC(=N)N)NC(=O)[C@H](CC(C)C)NC1=O)C(C)C", "System Name": "NCI/ADR-RES ovarian", "growth": "7.03% (active)"}
{"Compound": "CC(C)(C)OC(=O)N1CCc2c(sc3ncnc(N/N=C/c4ccc(Br)cc4)c23)C1", "System Name": "NCI/ADR-RES ovarian", "growth": "35.4% (inactive)"}
{"Compound": "CC(=O)C1N=NCC1c1ccccc1 (stereo not given)", "System Name": "NCI/ADR-RES ovarian", "growth": "104% (inactive)"}
{"Compound": "CCn1c2ccc(O)cc2c2c(C)c3c[n+](C)ccc3c(C)c21", "System Name": "NCI/ADR-RES ovarian", "growth": "81% (inactive)"}
{"Compound": "CCOC(=O)CSc1nc(-c2cc(OC)ccc2OC)cc(-c2ccc(OC)cc2)c1C#N", "System Name": "NCI/ADR-RES ovarian", "growth": "81.6% (inactive)"}
{"Compound": "OCC1OC(n2cnc3c(NCc4ccco4)ncnc32)C(O)C1O (stereo not given)", "System Name": "NCI/ADR-RES ovarian", "growth": "12.7% (inactive)"}

Prompt: Report growth for Oc1ccc(-c2[nH]c3ccccc3c2-c2nc3ccccc3o2)cc1 tested on NCI/ADR-RES ovarian.
Response: 32.5% (inactive)

Prompt: And O=[N+]([O-])c1ccc2ncccc2c1Cl ?
Response: 29.2% (inactive)

Prompt: Please give the result for CCN1C(=O)CC(SC2CC(=O)N(CC)C2=O)C1=O (stereo not given) too.
Response: 98.7% (inactive)

Prompt: Repeat with Cc1ccc(-n2nnnc2N)c(C)c1
Response: 105% (inactive)

Prompt: Further, for N#Cc1c(-c2ccc(Cl)cc2)n(O)c2ccccc12 ?
Response: 2.73% (active)

Every entry's value here was drawn from PubChem BioAssay (NCI).
